B1: library; a variant is named by its letters at N, in order (parent)
chain: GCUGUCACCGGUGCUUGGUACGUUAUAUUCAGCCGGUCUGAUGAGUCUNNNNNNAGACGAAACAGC

- Variants of: B1
- METHOD: FACS-Seq fitted mean relative fluorescence mCherry/BFP without ligand (log10 relative fluorescence); HEK293T overexpressing SLC46A1; higher = higher reporter protein expression
- CONDITION_PARAMETERS: without (6R,S)-folinic acid; ligand present: no
Entries and their FACS-Seq fitted mean (log10)

| SEQ | FACS-Seq fitted mean (log10) |
| --- | --- |
| GCUGUCACCGGUGCUUGGUACGUUAUAUUCAGCCGGUCUGAUGAGUCUGAUAUAAGACGAAACAGC | 0.295 |
| GCUGUCACCGGUGCUUGGUACGUUAUAUUCAGCCGGUCUGAUGAGUCUUGCAUGAGACGAAACAGC | 0.298 |
| GCUGUCACCGGUGCUUGGUACGUUAUAUUCAGCCGGUCUGAUGAGUCUUUUAUGAGACGAAACAGC | 0.307 |
